Activity for assorted compounds
# study target: Multidrug efflux pump LfrA (Mycobacterium smegmatis (strain ATCC 700084 / mc(2)155)) (UniProt A0R5K5)
# Sequence (A0R5K5 whole entry): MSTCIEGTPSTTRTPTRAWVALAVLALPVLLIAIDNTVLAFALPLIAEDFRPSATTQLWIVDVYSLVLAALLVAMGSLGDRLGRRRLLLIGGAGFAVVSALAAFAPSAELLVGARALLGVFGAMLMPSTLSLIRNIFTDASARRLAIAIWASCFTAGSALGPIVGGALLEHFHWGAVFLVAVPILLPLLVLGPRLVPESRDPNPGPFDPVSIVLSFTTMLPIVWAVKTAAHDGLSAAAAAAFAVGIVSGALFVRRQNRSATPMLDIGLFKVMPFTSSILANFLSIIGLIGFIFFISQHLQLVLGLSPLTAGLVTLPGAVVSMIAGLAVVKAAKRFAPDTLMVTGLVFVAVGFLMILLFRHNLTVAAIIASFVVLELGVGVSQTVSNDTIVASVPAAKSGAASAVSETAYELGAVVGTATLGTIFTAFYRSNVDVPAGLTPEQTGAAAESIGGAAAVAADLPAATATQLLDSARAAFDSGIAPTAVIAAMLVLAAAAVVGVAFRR
# protocol text: Inhibition of LfrA in Mycobacterium smegmatis MC2 155 ATCC 700084 assessed as increase in EtBr accumulation at 50 ug/ml measured every 5 mins for 35 mins by fluorometric analysis
# applied conditions: Mycolicibacterium smegmatis MC2 155

Consider the reported Activity for these compounds:
{"columns": ["smiles str", "Activity"],
 "data": [
  ["O=c1c2cccc(Cl)c2nc2ccc(F)cn12", "> 500 FU"],
  ["O=c1c2ccc(Cl)cc2nc2ccccn12", "248 FU"],
  ["Cc1cccn2c(=O)c3ccccc3nc12", "250 FU"],
  ["O=c1c2cccc(Cl)c2nc2c(Cl)cccn12", "> 355 FU"],
  ["Cc1ccn2c(=O)c3cccc(F)c3nc2c1", "> 150 FU"]
]}

Would you mind telling me what Activity value was observed for O=c1c2ccccc2nc2c(F)cc(F)cn12 ?
> 255 FU

Value lookup for Activity; key = O=c1c2ccccc2nc2ccccn12
< 150 FU

Quick one: Activity of Cc1cccn2c(=O)c3cccc(Cl)c3nc12 ?
400 FU

---

# fractional inhibitory concentration index (FICI) annotations
# study target: Multidrug efflux pump LfrA (Mycobacterium smegmatis (strain ATCC 700084 / mc(2)155))
# protocol text: Inhibition of LfrA in Mycobacterium smegmatis MC2 155 ATCC 700084 assessed as decrease in norfloxacin MIC at 12.5 ug/ml after 72 hrs by MTT assay relative to control
# applied conditions: Mycolicibacterium smegmatis MC2 155
Lab note: record the figure alone, no unit after it.

For orientation, consider the following solved cases.
{"columns": ["smiles str", "result"],
 "data": [
  ["O=c1c2ccc(F)cc2nc2ccccn12", 0.56],
  ["O=c1c2cccc(F)c2nc2ccccn12", 0.12],
  ["Cc1ccn2c(=O)c3cccc(F)c3nc2c1", 0.3],
  ["O=c1c2ccccc2nc2c(F)cc(F)cn12", 0.3]
]}

Now, please, on to the next compound.
Recorded fractional inhibitory concentration index (FICI) for Cc1cccn2c(=O)c3ccccc3nc12 with Multidrug efflux pump LfrA (Mycobacterium smegmatis (strain ATCC 700084 / mc(2)155)), please?
0.3

---

# study target: Multidrug efflux pump LfrA (Mycobacterium smegmatis (strain ATCC 700084 / mc(2)155))
# protocol text: Inhibition of LfrA in Mycobacterium smegmatis MC2 155 ATCC 700084 assessed as increase in norfloxacin accumulation at 25 ug/ml measured every 5 mins for 35 mins by fluorometric analysis
# applied conditions: Mycolicibacterium smegmatis MC2 155
endpoint: Activity (FU)
Note: unit FU is implicit; provide only the numeric part.

{"columns": ["smiles str", "endpoint", "unit abbreviation", "result"],
 "data": [
  ["O=c1c2cccc(F)c2nc2ccccn12", "Activity", "FU", 3000],
  ["O=c1c2ccccc2nc2ccccn12", "Activity", "FU", 2000],
  ["O=c1c2cccc(Cl)c2nc2ccccn12", "Activity", "FU", 3000]
]}

// next entry
# input compound: O=c1c2ccc(Cl)cc2nc2ccccn12 ; wanted: its Activity
18000

---

Listed next: entries and their corresponding viability at 24 h, 50 ug/ml.
# protocol text: Cytotoxicity against rat CC1 cells assessed as cell survival at 50 ug/ml after 24 hrs by Alamar blue reduction assay relative to control
# Type: cell-based, CC-1
# applied conditions: read-out: Survival
Write the answer as a number in %, unit excluded.

Solved cases (5 shown):
{"columns": ["smiles str", "result"],
 "data": [
  ["O=c1c2cccc(Cl)c2nc2ccc(F)cn12", 84],
  ["Cc1cccn2c(=O)c3cccc(Cl)c3nc12", 40],
  ["Cc1ccn2c(=O)c3cccc(F)c3nc2c1", 96],
  ["O=c1c2ccccc2nc2c(F)cc(F)cn12", 80],
  ["O=c1c2cccc(F)c2nc2ccccn12", 96]
]}

Which viability at 24 h, 50 ug/ml reading was recorded for the compound O=c1c2cccc(Cl)c2nc2ccccn12 ?
100

For O=c1c2ccccc2nc2ccccn12 , what is its reported viability at 24 h, 50 ug/ml?
86

GET /values?readout=viability at 24 h, 50 ug/ml&item= O=c1c2cccc(Cl)c2nc2c(Cl)cccn12
95

Can you share its viability at 24 h, 50 ug/ml? I mean this compound: Cc1cccn2c(=O)c3ccccc3nc12
45

Quick one: viability at 24 h, 50 ug/ml for O=c1c2ccc(Cl)cc2nc2ccccn12 ?
80

---

viability at 24 h, 100 ug/ml for assorted compounds
# protocol text: Cytotoxicity against rat CC1 cells assessed as cell survival at 100 ug/ml after 24 hrs by Alamar blue reduction assay relative to control
# Type: cell-based, CC-1
# applied conditions: read-out: Survival
Unit % implied. Number only.

Use these answered entries as a reference point.
{"columns": ["smiles str", "viability at 24 h, 100 ug/ml, %"],
 "data": [
  ["O=c1c2cccc(Cl)c2nc2c(Cl)cccn12", 92],
  ["O=c1c2ccc(Cl)cc2nc2ccccn12", 70],
  ["O=c1c2cccc(Cl)c2nc2ccccn12", 99],
  ["O=c1c2cccc(F)c2nc2ccccn12", 93]
]}

Please give the measured viability at 24 h, 100 ug/ml for this compound: O=c1c2ccccc2nc2c(F)cc(F)cn12
52

What value of viability at 24 h, 100 ug/ml has been reported for the following compound? Cc1cccn2c(=O)c3cccc(Cl)c3nc12
42

Please look up its viability at 24 h, 100 ug/ml: Cc1ccn2c(=O)c3cccc(F)c3nc2c1
43

May I ask what viability at 24 h, 100 ug/ml has been recorded for O=c1c2cccc(Cl)c2nc2ccc(F)cn12 ?
86

Entry under review: Cc1cccn2c(=O)c3ccccc3nc12 . Reported viability at 24 h, 100 ug/ml?
81

Bench note: what viability at 24 h, 100 ug/ml did O=c1c2ccccc2nc2ccccn12 show?
70

---

# study target: Multidrug efflux pump LfrA (Mycobacterium smegmatis (strain ATCC 700084 / mc(2)155)) (UniProt A0R5K5)
# protocol text: Inhibition of LfrA in Mycobacterium smegmatis MC2 155 ATCC 700084 assessed as decrease in norfloxacin MIC at 12.5 ug/ml after 72 hrs by MTT assay relative to control
# applied conditions: Mycolicibacterium smegmatis MC2 155
We begin with a simple list: items and their reported fold change (FC).
Give the value as a plain number.

Some entries whose results are on file:
{"columns": ["smiles str", "result"],
 "data": [
  ["Cc1ccn2c(=O)c3cccc(F)c3nc2c1", 4],
  ["Cc1cccn2c(=O)c3ccccc3nc12", 4],
  ["O=c1c2ccccc2nc2c(F)cc(F)cn12", 4]
]}

Turning now to a further record.
# query: fold change (FC) of entry O=c1c2cccc(F)c2nc2ccccn12
16

---

# study target: Multidrug efflux pump LfrA (Mycobacterium smegmatis (strain ATCC 700084 / mc(2)155)) (UniProt A0R5K5)
# protocol text: Inhibition of LfrA in Mycobacterium smegmatis MC2 155 ATCC 700084 assessed as increase in EtBr accumulation at 25 ug/ml measured every 5 mins for 35 mins by fluorometric analysis
# applied conditions: Mycolicibacterium smegmatis MC2 155
Active and inactive are the calls of the source. No cut-off for these calls is given here.
The categories you may choose from are Y = active, N = inactive

Check out these entries, answers already filled in.
{"columns": ["smiles str", "class name"],
 "data": [
  ["O=c1c2cccc(Cl)c2nc2c(Cl)cccn12", "Y"],
  ["Cc1cccn2c(=O)c3cccc(Cl)c3nc12", "Y"]
]}

For O=c1c2ccccc2nc2ccccn12 , what call appears in the results of this test?
N

Just curious, what result did O=c1c2ccc(Cl)cc2nc2ccccn12 get here?
Y
